PROTOCOL_NOTES: Quantitative High-Throughput drug screen in 47 multiple myeloma cell lines against the NCATS MIPE library collection: JIM1_ECACC cell viability assay (AID 1918964)
APPLIED_CONDITIONS: JIM1 myeloma viability, CellTiter-Glo ATP luminescence, 48 h; series mostly up to 45.8 µM
Results filed as inconclusive are left out. Active and inactive are the calls of the source. The call rests on the fitted dose curve; in most records, active means well fitted cell-killing curve with a large enough effect; inconclusive means small, poorly fitted or top-dose-only effect, or effect the other way; inactive means no such curve, though single readings can be large or run the other way. Non-standard residues stand in square brackets, D forms with d. Residues, ends and D or L forms follow the SMILES beside them. *: point of attachment. Nva = CCC[C@H](N)C(=O)O; Cbz = O=C(OCc1ccccc1)*
Response enum: active, inactive

[
  {
    "COMPOUND": "CCC[C@@H](C=O)NC(=O)[C@H](CC(C)C)NC(=O)[C@H](CC(C)C)NC(=O)OCc1ccccc1 (Cbz-Leu-Leu-[Nva]-aldehyde)",
    "CLASS_ASSIGNMENT": "active"
  },
  {
    "COMPOUND": "C=Cc1c(C)c2cc3nc(cc4[nH]c(cc5nc(cc1[nH]2)C(C)=C5CCC(=O)O)c(CCC(=O)OC)c4C)[C@@]1(C)C3=CC=C(C(=O)OC)[C@H]1C(=O)OC",
    "CLASS_ASSIGNMENT": "active"
  },
  {
    "COMPOUND": "CC(=O)[C@]1(O)Cc2c(O)c3c(c(O)c2[C@@H](O[C@H]2C[C@H](N)[C@@H](O)[C@H](C)O2)C1)C(=O)c1ccccc1C3=O",
    "CLASS_ASSIGNMENT": "active"
  }
]

State the result this test recorded for `COc1cccc2c1C(=O)c1c(O)c3c(c(O)c1C2=O)C[C@@](O)(C(=O)CO)C[C@H]3O[C@H]1C[C@H](N)[C@H](O)[C@H](C)O1` .
active

State the result this test recorded for `CC(=O)NCC(=O)N1[C@H]2CC[C@H]1c1cc(Nc3ncc(C(F)(F)F)c(NC4CCC4)n3)ccc12` .
active

State the result this test recorded for `C=CC(=O)N1CCc2ccc(-n3c(=O)ccc4cnc5ccc(-c6cnn(C)c6)cc5c43)cc21` .
active

State the result this test recorded for N[C@H]1CN(c2c(F)cc3c(=O)c(C(=O)O)cn(C4C[C@@H]4F)c3c2Cl)CC12CC2 (stereo partly specified) .
inactive

State the result this test recorded for `C[C@@H](Oc1ccc2[nH]nc(C=Cc3cnn(CCO)c3)c2c1)c1c(Cl)cncc1Cl` .
inactive
